Experiment: Pharmacokinetic study in Renca-luc tumor-bearing BALB/c mice
Type: in vivo, mouse
Conditions: male, BALB/c, mouse, ip; glucuronide metabolite, lungs; after OXi8007 250 mg/kg; read-out: Tmax (converted)
measured quantity: Tmax (h)
Record the value in h, omitting the unit from your answer.

### Prompt Find the recorded Tmax belonging to COc1ccc2c(C(=O)c3cc(OC)c(OC)c(OC)c3)c(-c3ccc(OC)c(O[C@@H]4O[C@H](C(=O)O)[C@@H](O)[C@H](O)[C@H]4O)c3)[nH]c2c1 [OXi8006 Glucuronide] and report it.
### Response 1

----------
Experiment: Pharmacokinetic study in Renca-luc tumor-bearing BALB/c mice
Format: in vivo, mouse
Settings: male, BALB/c, mouse, in vivo, ip, 250 mg/kg, lungs; after OXi8007 250 mg/kg IP
Below is a list of entries, each paired with its recorded half-life value.
Please respond with the number in h and leave the unit unwritten.

COc1ccc2c(C(=O)c3cc(OC)c(OC)c(OC)c3)c(-c3ccc(OC)c(OP(=O)(O)O)c3)[nH]c2c1 [OXi8007]: 0.7

Next, consider the following compound.
### Prompt Consider the compound COc1ccc2c(C(=O)c3cc(OC)c(OC)c(OC)c3)c(-c3ccc(OC)c(O)c3)[nH]c2c1 [OXi8006] and give its measured half-life.
### Response 2.56

----------
Catalogue of Tmax readings, one per entry.
Test: Pharmacokinetic study in Renca-luc tumor-bearing BALB/c mice
Type: in vivo, mouse
Conditions: male, BALB/c, mouse, in vivo, ip, 250 mg/kg, lungs; after OXi8007 250 mg/kg IP; read-out: Tmax (converted)
Enter your answer as a number in min; do not include the unit.

COc1ccc2c(C(=O)c3cc(OC)c(OC)c(OC)c3)c(-c3ccc(OC)c(OP(=O)(O)O)c3)[nH]c2c1: 20

Continue with the next compound.
### Prompt Which value of Tmax has been reported for `COc1ccc2c(C(=O)c3cc(OC)c(OC)c(OC)c3)c(-c3ccc(OC)c(O)c3)[nH]c2c1` in the records?
### Response 20

----------
Assay: Pharmacokinetic study in Renca-luc tumor-bearing BALB/c mice
Format: in vivo, mouse
Settings: male, BALB/c, mouse, ip; glucuronide metabolite, brain; after OXi8007 250 mg/kg; read-out: Tmax (converted)
measured quantity: Tmax (h)
Only the number, expressed in h, is required.

### Prompt I have this molecule here, COc1ccc2c(C(=O)c3cc(OC)c(OC)c(OC)c3)c(-c3ccc(OC)c(O[C@@H]4O[C@H](C(=O)O)[C@@H](O)[C@H](O)[C@H]4O)c3)[nH]c2c1 [OXi8006 Glucuronide] , and I need its recorded Tmax.
### Response 1

----------
Assay: Pharmacokinetic study in Renca-luc tumor-bearing BALB/c mice
Format: in vivo, mouse
Settings: male, BALB/c, mouse, in vivo, ip, 250 mg/kg, spleen; after OXi8007 250 mg/kg IP; read-out: Tmax (converted)
measured quantity: Tmax (min)
Kindly provide the numeric value in min only, without the unit symbol.

COc1ccc2c(C(=O)c3cc(OC)c(OC)c(OC)c3)c(-c3ccc(OC)c(OP(=O)(O)O)c3)[nH]c2c1: 60

Next:
### Prompt What value of Tmax has been recorded for this entry: `COc1ccc2c(C(=O)c3cc(OC)c(OC)c(OC)c3)c(-c3ccc(OC)c(O)c3)[nH]c2c1`
### Response 20

----------
Test: Pharmacokinetic study in Renca-luc tumor-bearing BALB/c mice
Format: in vivo, mouse
Conditions: male, BALB/c, mouse, in vivo, ip, 250 mg/kg, plasma; after OXi8007 250 mg/kg IP
Protocol: Plasma and tissues were harvested at various time points (20 min to 16 h) from Renca-luc tumor-bearing BALB/c male mice following the administration of OXi8007 IP. Mice treated with 250 mg/kg were sacrificed at 20 min (n = 3), 1 h (n = 4), 2 h (n = 4), 4 h (n = 4), 8 h (n = 4), and 16 h (n = 4). […] Data were analyzed using Xcalibur 4.6 software based on exact masses, and Phoenix WinNonlin 8.5.0 software was used to determine the pharmacokinetic parameters based on a non-compartmental model.
measured quantity: half-life (h)
Answer format: numeric, h implied, no suffix.

COc1ccc2c(C(=O)c3cc(OC)c(OC)c(OC)c3)c(-c3ccc(OC)c(O)c3)[nH]c2c1: 1.98

### Prompt GET /values?readout=half-life&item= `COc1ccc2c(C(=O)c3cc(OC)c(OC)c(OC)c3)c(-c3ccc(OC)c(OP(=O)(O)O)c3)[nH]c2c1`
### Response 0.817

----------
Assay: Pharmacokinetic study in Renca-luc tumor-bearing BALB/c mice
Assay type: in vivo, mouse
Conditions: male, BALB/c, mouse, ip; glucuronide metabolite, plasma; after OXi8007 250 mg/kg
measured quantity: half-life
State the result as a value with its unit after it.

### Prompt For COc1ccc2c(C(=O)c3cc(OC)c(OC)c(OC)c3)c(-c3ccc(OC)c(O[C@@H]4O[C@H](C(=O)O)[C@@H](O)[C@H](O)[C@H]4O)c3)[nH]c2c1 [OXi8006 Glucuronide] , what is its reported half-life?
### Response 1.95 h

----------
Experiment: Pharmacokinetic study in Renca-luc tumor-bearing BALB/c mice
Type: in vivo, mouse
Conditions: male, BALB/c, mouse, in vivo, ip, 250 mg/kg, Renca-luc tumors, IP administration; read-out: Time to maximum concentration in tumors
measured quantity: Tmax

### Prompt // lookup Tmax for COc1ccc2c(C(=O)c3cc(OC)c(OC)c(OC)c3)c(-c3ccc(OC)c(OP(=O)(O)O)c3)[nH]c2c1 [OXi8007]
### Response ≤ 1 h

----------
Assay: Pharmacokinetic study in Renca-luc tumor-bearing BALB/c mice
Type: in vivo, mouse
Conditions: male, BALB/c, mouse, in vivo, ip, 250 mg/kg, tumor and right kidney; after OXi8007 250 mg/kg IP; read-out: Tmax (converted)
Attribute: Tmax
Hey, just the number and the unit after it is fine.

COc1ccc2c(C(=O)c3cc(OC)c(OC)c(OC)c3)c(-c3ccc(OC)c(O)c3)[nH]c2c1 [OXi8006]: 1 h

Turning now to a further record.
### Prompt I am curious: what Tmax value has been reported for COc1ccc2c(C(=O)c3cc(OC)c(OC)c(OC)c3)c(-c3ccc(OC)c(OP(=O)(O)O)c3)[nH]c2c1 [OXi8007] ?
### Response 1 h

----------
Test: Pharmacokinetic study in Renca-luc tumor-bearing BALB/c mice
Format: in vivo, mouse
Settings: male, BALB/c, mouse, ip; glucuronide metabolite, tumor; after OXi8007 250 mg/kg; read-out: Tmax (converted)
measured quantity: Tmax (h)
Enter your answer as a number in h; do not include the unit.

### Prompt Entry under review: COc1ccc2c(C(=O)c3cc(OC)c(OC)c(OC)c3)c(-c3ccc(OC)c(O[C@@H]4O[C@H](C(=O)O)[C@@H](O)[C@H](O)[C@H]4O)c3)[nH]c2c1 [OXi8006 Glucuronide] . Reported Tmax?
### Response 4

----------
Experiment: Pharmacokinetic study in Renca-luc tumor-bearing BALB/c mice
Format: in vivo, mouse
Settings: male, BALB/c, mouse, ip; glucuronide metabolite, plasma; after OXi8007 250 mg/kg; read-out: Tmax (converted)
measured quantity: Tmax (h)
Express the result in h but write the number alone.

### Prompt What value of measured Tmax is listed for COc1ccc2c(C(=O)c3cc(OC)c(OC)c(OC)c3)c(-c3ccc(OC)c(O[C@@H]4O[C@H](C(=O)O)[C@@H](O)[C@H](O)[C@H]4O)c3)[nH]c2c1 [OXi8006 Glucuronide] ?
### Response 1

----------
Experiment: Pharmacokinetic study in Renca-luc tumor-bearing BALB/c mice
Format: in vivo, mouse
Details: male, BALB/c, mouse, ip; glucuronide metabolite, left kidney; after OXi8007 250 mg/kg
measured quantity: half-life (h)
Respond numerically; units are h and should not be typed.

### Prompt Entry COc1ccc2c(C(=O)c3cc(OC)c(OC)c(OC)c3)c(-c3ccc(OC)c(O[C@@H]4O[C@H](C(=O)O)[C@@H](O)[C@H](O)[C@H]4O)c3)[nH]c2c1 [OXi8006 Glucuronide] : reported half-life = ?
### Response 3.75

----------
Catalogue of half-life values
Assay: Pharmacokinetic study in Renca-luc tumor-bearing BALB/c mice
Type: in vivo, mouse
Details: male, BALB/c, mouse, in vivo, ip, 250 mg/kg, heart; after OXi8007 250 mg/kg IP
Experimental: Plasma and tissues were harvested at various time points (20 min to 16 h) from Renca-luc tumor-bearing BALB/c male mice following the administration of OXi8007 IP. Mice treated with 250 mg/kg were sacrificed at 20 min (n = 3), 1 h (n = 4), 2 h (n = 4), 4 h (n = 4), 8 h (n = 4), and 16 h (n = 4). […] Data were analyzed using Xcalibur 4.6 software based on exact masses, and Phoenix WinNonlin 8.5.0 software was used to determine the pharmacokinetic parameters based on a non-compartmental model.
Numeric answer only, unit h assumed.

COc1ccc2c(C(=O)c3cc(OC)c(OC)c(OC)c3)c(-c3ccc(OC)c(OP(=O)(O)O)c3)[nH]c2c1 [OXi8007]: 0.61

From here, focus on the item given below.
### Prompt Fill in the blank: the reported half-life of COc1ccc2c(C(=O)c3cc(OC)c(OC)c(OC)c3)c(-c3ccc(OC)c(O)c3)[nH]c2c1 [OXi8006] is ____.
### Response 2.02
